Target: T1, NHERF3_1, Q5T2W1
T1 sequence (Q5T2W1 4-100, limits assumed, looked up): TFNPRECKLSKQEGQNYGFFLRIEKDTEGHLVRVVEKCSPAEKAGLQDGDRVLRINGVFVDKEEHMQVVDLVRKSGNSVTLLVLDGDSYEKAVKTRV
Assay: holdup assay
Design: key: below the threshold = too weak to quantify, mostly under pKd 3.1 to 4
Settings: plain residues with an end cap or a label only (N-terminal biotin on a linker: ado-ado)
# thresholds on pKd define classes: label 0: < 4; label 1: ≥ 4 and < 5; label 2: ≥ 5

-- ask Sort SGDGKTSVWI [GJC1, P36383] into one of the categories.
-- reply label 0

-- ask Record: QKNKDREYYV [NRXN3, Q9HDB5]
-- reply label 1

-- ask Record: AKADAQESRL [PLCB2, Q00722]
-- reply label 2

-- ask Record: EKPIDSETKM [SLC1A3, P43003]
-- reply label 2

-- ask Record: PLATCDETSI [SEMA4F, O95754]
-- reply label 0

-- ask Record: HDDYFYHDEL [RCN2, Q14257]
-- reply label 1

-- ask Record: EPAKETTTNV [SLC2A3, P11169]
-- reply label 0

-- ask Record: ADEMICITTL [CACNA1D, Q01668]
-- reply label 1

-- ask Record: PGKKPEDSRV [SLCO2B1, O94956]
-- reply label 0

-- ask Record: LPPPESESKV [KCNJ9, Q92806]
-- reply label 1

-- ask Record: VYEVPVETKF [SLC26A3, P40879]
-- reply label 2

-- ask Record: GTMFLRETSL [GUCY1A2, P33402]
-- reply label 2

-- ask Record: VKQYADVEGF [HNRNPK, P61978]
-- reply label 0

-- ask Record: PSVYSRSQYV [CLDN8, P56748]
-- reply label 2

-- ask Record: SRPHTNETSL [MCC, P23508]
-- reply label 2

-- ask Record: IKLETKKTKL [SLC15A2, Q16348]
-- reply label 1
